Each entry below carries its recorded inhibition.
experiment: compounds displacing fluorescent DNA intercalator, primary screen, artefact control for HCV NS3 helicase inhibitor project, biochemical, FID fluorescence (AID 1845); settings: DNA fluorescent intercalator displacement, at 7.9 µM, stronger effect = higher value;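 note: 0% = vehicle and 100% = reference compound; higher means more ethidium bromide displaced from hairpin DNA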
About 490 (0.17%) of roughly 290,000 compounds were called active. Many of the other results were omitted from the sample, so actives are more common in it than they were.
# value in %; strip the unit string

{"columns": ["Compound", "Display Unit", "inhibition"],
 "data": [
  ["CCOC(=O)C1(Cc2ccc(Cl)cc2)CCN(C(C)CCn2cccn2)CC1 (stereo not given)", "%", 37.1]
]}

Sample O=C(C1CC(=O)N(C2CCCC2)C1)N1CCC2(CC1)OCCO2 (stereo not given) — what was its inhibition?
-1.99

Sample CCOC(=O)C1(CCc2ccccc2)CCN(Cc2ccco2)CC1 — what was its inhibition?
5.09

Sample O=C(Cc1ccc(Cl)cc1)NCCN1CCN(C(=O)Cc2ccc(Cl)cc2)CC1 — what was its inhibition?
-26

Sample Cc1nc2ccc(N3CCN(C)CC3)cc2nc1C — what was its inhibition?
7.94
